Where these numbers come from: patent US20150140169

Each entry below carries its reported αs1 CN, 24 hours, 11° C..
# target.of.assay: T1, alpha-s1 casein from Bos taurus
# T1 chain: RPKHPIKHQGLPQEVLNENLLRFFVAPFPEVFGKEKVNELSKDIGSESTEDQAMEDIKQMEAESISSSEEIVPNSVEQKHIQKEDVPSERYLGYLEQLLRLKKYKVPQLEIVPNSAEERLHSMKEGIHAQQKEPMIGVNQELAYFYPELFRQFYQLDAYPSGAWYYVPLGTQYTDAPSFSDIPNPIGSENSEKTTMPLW
readout.label: αs1 CN, 24 hours, 11° C. (Volume)

bovine chymosin B variant #1 (A51V) (protein) GEVASVPLTNYLDSQYFGKIYLGTPPQEFTVLFDTGSSDFWVPSIYCKSNVCKNHQRFDPRKSSTFQNLGKPLSIHYGTGSMQGILGYDTVTVSNIVDIQQTVGLSTQEPGDVFTYAEFDGILGMAYPSLASEYSIPVFDNMMNRHLVAQDLFSVYMDRNGQESMLTLGAIDPSYYTGSLHWVPVTVQQYWQFTVDSVTISGVVVACEGGCQAILDTGTSKLVGPSSDILNIQQAIGATQNQYGEFDIDCDNLSYMPTVVFEINGKMYPLTPSAYTSQDQGFCTSGFQSENHSQKWILGDVFIREYYSVFDRANNLVGLAKAI	5.8e+06
camel chymosin variant #155 (D290Q) (protein) GKVAREPLTSYLDSQYFGKIYIGTPPQEFTVVFDTGSSDLWVPSIYCKSNVCKNHHRFDPRKSSTFRNLGKPLSIHYGTGSMEGFLGYDTVTVSNIVDPNQTVGLSTEQPGEVFTYSEFDGILGLAYPSLASEYSVPVFDNMMDRHLVARDLFSVYMDRNGQGSMLTLGAIDPSYYTGSLHWVPVTLQQYWQFTVDSVTINGVAVACVGGCQAILDTGTSVLFGPSSDILKIQMAIGATENRYGEFDVNCGNLRSMPTVVFEINGRDYPLSPSAYTSKDQGFCTSGFQGQNNSELWILGDVFIREYYSVFDRANNRVGLAKAI	1.35e+07
